- System: panel of 140 standard cancer cell lines
- experiment: ProliFiler-140 cancer cell line screen (CellTiterGlo, 72 h)
- Type: cell-based
- run.conditions: read-out: IC50 [M] (ProliFiler-140); BT-20 (Breast)
measurement.type: IC50 (M)
A number alone suffices; assume M.

Query: IC50 lookup needed for COc1cc2cc(C(=O)N3C[C@@H](CCl)c4c3cc(OC(=O)N3CCN(C(=O)CCC(=O)N5CCN(C)CC5)[C@H]5CSSC[C@H]53)c3ccccc43)[nH]c2c(OC)c1OC [P-SS66C-CBI-TMI] , thanks.
Response: 1.22e-07

====

- Test system: panel of 140 standard cancer cell lines
- experiment: ProliFiler-140 cancer cell line screen (CellTiterGlo, 72 h)
- Assay type: cell-based
- run.conditions: MV4-11 (Blood); listed as Dox; read-out: IC50 [M] (ProliFiler-140)
measurement.type: IC50 (M)
A number alone suffices; assume M.

Query: IC50 lookup needed for COc1cccc2c1C(=O)c1c(O)c3c(c(O)c1C2=O)C[C@@](O)(C(=O)CO)C[C@@H]3O[C@H]1C[C@H](N)[C@H](O)[C@H](C)O1 [doxorubicin, reference compound] , thanks.
Response: 4.26e-09

====

- Tested on: NCI-60 standardized human tumor cell line panel
- experiment: cells
- Format: cell-based
- run.conditions: HCT-116; read-out: GI50
The entries below are paired with their reported GI50.
A number alone suffices; assume nM.

INSERT INTO measurements (compound, measurement_type, observed_result) VALUES
  ('COc1cc2cc(C(=O)N3CC(CCl)c4c3cc(OC(=O)N3CCN(C)C5CSSCC53)c3ccccc43)[nH]c2c(OC)c1OC (mixture of isomers) [Me-SS66C-CBI-TMI]', 'GI50', 190),
  ('COc1cc2cc(C(=O)N3CC(CCl)c4c3cc(OC(=O)N3CCN(C)C5CSSCC53)c3ccccc43)[nH]c2c(OC)c1OC (mixture of isomers) [Me-SS66T-CBI-TMI]', 'GI50', 18),
  ('COc1cc2cc(C(=O)N3C[C@@H](CCl)c4c3cc(OC(=O)N(C)CCSSCCN3CCOCC3)c3ccccc43)[nH]c2c(OC)c1OC [SS00M-CBI-TMI]', 'GI50', 610),
  ('COc1cc2cc(C(=O)N3C[C@@H](CCl)c4c3cc(OC(=O)N(CCC(=O)N3CCN(C)CC3)C3CCCCC3)c3ccccc43)[nH]c2c(OC)c1OC', 'GI50', 1500);

Now for a further compound.
Query: GI50 lookup needed for COc1cc2cc(C(=O)N3C[C@@H](CCl)c4c3cc(OC(=O)N(CCC(=O)N3CCN(C)CC3)[C@H]3CCSSC3)c3ccccc43)[nH]c2c(OC)c1OC , thanks.
Response: 160

====

- System: panel of 140 standard cancer cell lines
- experiment: ProliFiler-140 cancer cell line screen (CellTiterGlo, 72 h)
- Type: cell-based
- run.conditions: Homo sapiens, HCT-116, read-out: IC50 [M] (ProliFiler-140), HCT116 (Colon)
measurement.type: IC50 (M)
A number alone suffices; assume M.

Query: IC50 lookup needed for COc1cc2cc(C(=O)N3C[C@@H](CCl)c4c3cc(OC(=O)N3CCN(C(=O)CCC(=O)N5CCN(C)CC5)[C@H]5CSSC[C@H]53)c3ccccc43)[nH]c2c(OC)c1OC [P-SS66C-CBI-TMI] , thanks.
Response: 3.23e-08
